Molecular target: Cyclin-dependent kinase 6 (Homo sapiens, UniProt Q00534); note: in the data inactive means no Kd found up to 30 µM
Sequence (Q00534 whole entry): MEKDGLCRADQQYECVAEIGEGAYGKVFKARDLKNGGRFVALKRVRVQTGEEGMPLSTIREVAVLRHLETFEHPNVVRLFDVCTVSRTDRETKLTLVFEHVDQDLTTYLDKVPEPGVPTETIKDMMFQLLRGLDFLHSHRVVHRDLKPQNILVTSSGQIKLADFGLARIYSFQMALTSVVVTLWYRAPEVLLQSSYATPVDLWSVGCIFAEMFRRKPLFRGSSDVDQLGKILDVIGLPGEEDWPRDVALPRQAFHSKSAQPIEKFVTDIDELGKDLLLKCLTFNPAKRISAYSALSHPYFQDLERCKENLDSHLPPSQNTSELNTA
Activity calls are given as the source filed them.
// allowed return values: YES for active, NO for inactive

Compound: CN1CCC(CNc2ccc3ncc(-c4cccc(OC(F)(F)F)c4)n3n2)CC1
System Under Test: Cyclin-dependent kinase 6 (Homo sapiens, UniProt Q00534); note: in the data inactive means no Kd found up to 30 µM
Class Label: NO
//
Compound: CO[C@H]1C[C@@H]2CC[C@@H](C)[C@@](O)(O2)C(=O)C(=O)N2CCCC[C@H]2C(=O)O[C@H]([C@H](C)C[C@@H]2CC[C@@H](OCCO)[C@H](OC)C2)CC(=O)[C@H](C)/C=C(\C)[C@@H](O)[C@@H](OC)C(=O)[C@H](C)C[C@H](C)/C=C/C=C/C=C/1C
System Under Test: Cyclin-dependent kinase 6 (Homo sapiens, UniProt Q00534); note: in the data inactive means no Kd found up to 30 µM
Class Label: NO
//
Compound: CC(C)Nc1cc(-c2c[nH]c(C(=O)N[C@H](CO)c3cccc(Cl)c3)c2)c(Cl)cn1
System Under Test: Cyclin-dependent kinase 6 (Homo sapiens, UniProt Q00534); note: in the data inactive means no Kd found up to 30 µM
Class Label: NO
//
Compound: CCCS(=O)(=O)Nc1ccc(F)c(C(=O)c2c[nH]c3ncc(-c4ccc(Cl)cc4)cc23)c1F
System Under Test: Cyclin-dependent kinase 6 (Homo sapiens, UniProt Q00534); note: in the data inactive means no Kd found up to 30 µM
Class Label: NO
//
Compound: COC(=O)[C@@]1(O)C[C@H]2O[C@]1(C)n1c3ccccc3c3c4c(c5c6ccccc6n2c5c31)C(=O)NC4 [K-252A]
System Under Test: Cyclin-dependent kinase 6 (Homo sapiens, UniProt Q00534); note: in the data inactive means no Kd found up to 30 µM
Class Label: YES
//
Compound: O=C(Nc1cccc(Cl)c1)Nc1ncc(CCNc2ncnc3ccsc23)s1
System Under Test: Cyclin-dependent kinase 6 (Homo sapiens, UniProt Q00534); note: in the data inactive means no Kd found up to 30 µM
Class Label: NO

**Q:** Any idea what this test logged for CN1CCN(c2ccc3nc(-c4c(N)c5c(F)cccc5[nH]c4=O)[nH]c3c2)CC1 ?
**A:** YES

**Q:** Any idea what this test logged for CN1CCC(COc2cnc(-c3cccc(Cn4nc(-c5cccc(C#N)c5)ccc4=O)c3)nc2)CC1 ?
**A:** NO

**Q:** Any idea what this test logged for Cc1cc([C@@H](C)Nc2ccccc2C(=O)O)c2nc(N3CCOCC3)cc(=O)n2c1 ?
**A:** NO

**Q:** Any idea what this test logged for COc1ccc(-c2ccc3c(N4CCOC[C@@H]4C)nc(N4CCOC[C@@H]4C)nc3n2)cc1CO ?
**A:** NO

**Q:** Any idea what this test logged for CN1CC[C@@H](c2c(O)cc(O)c3c(=O)cc(-c4ccccc4Cl)oc23)[C@@H]1CO ?
**A:** NO

**Q:** Any idea what this test logged for CCn1c(=O)c(-c2cc[nH]n2)cc2c(C)nc(N)nc21 ?
**A:** NO

**Q:** Any idea what this test logged for COC(=O)N[C@@H](C)CNc1nccc(-c2cn(C(C)C)nc2-c2cc(Cl)cc(NS(C)(=O)=O)c2F)n1 ?
**A:** NO

**Q:** Any idea what this test logged for CNS(=O)(=O)Nc1nccc(Cc2c(C)c3ccc(Oc4ncccn4)cc3oc2=O)c1F ?
**A:** NO

**Q:** Any idea what this test logged for CC[C@H](Nc1ncnc2[nH]cnc12)c1nc2cccc(F)c2c(=O)n1-c1ccccc1 ?
**A:** NO

**Q:** Any idea what this test logged for CN1N=C(N)c2cn([C@@H]3O[C@H](COP(=O)(O)O)[C@@H](O)[C@H]3O)c3ncnc1c23 [TRICIRIBINE PHOSPHATE] ?
**A:** NO

**Q:** Any idea what this test logged for Cc1c(F)cc(C(=O)NC2CC2)cc1-c1ccc(C(=O)NCC(C)(C)C)cn1 ?
**A:** NO

**Q:** Any idea what this test logged for COc1cc(OC)c(/C=C/S(=O)(=O)Cc2ccc(OC)c(NCC(=O)O)c2)c(OC)c1 ?
**A:** NO

**Q:** Any idea what this test logged for CNC(=O)c1ccc(-c2cnc3ncc(Cc4ccc5ncccc5c4)n3n2)cc1F ?
**A:** NO

**Q:** Any idea what this test logged for COc1cc(N2CCC(N3CCN(C)CC3)CC2)ccc1Nc1ncnc(Nc2ccccc2S(=O)(=O)C(C)C)n1 ?
**A:** NO

**Q:** Any idea what this test logged for O=C(Nc1ccc(-c2ccnc(Nc3ccc(N4CCOCC4)cc3)n2)cc1)C1CCCN1 (stereo unspecified) ?
**A:** NO

**Q:** Any idea what this test logged for Cc1cc(Nc2cc(N3CCN(C)CC3)nc(/C=C/c3ccccc3)n2)n[nH]1 ?
**A:** NO

**Q:** Any idea what this test logged for CCN1CCN(Cc2ccc(-c3cc4c(N[C@H](C)c5ccccc5)ncnc4[nH]3)cc2)CC1 ?
**A:** NO

**Q:** Any idea what this test logged for Cc1cc(-c2cc(O)ccc2Cl)cc2nnc(Nc3ccc(OCCN4CCCC4)cc3)nc12 ?
**A:** NO

**Q:** Any idea what this test logged for CCn1c(-c2nonc2N)nc2c(C#CC(C)(C)O)ncc(OC[C@H]3CCCNC3)c21 ?
**A:** NO

**Q:** Any idea what this test logged for CCS(=O)(=O)N1CC(CC#N)(n2cc(-c3ncnc4[nH]ccc34)cn2)C1 ?
**A:** NO

**Q:** Any idea what this test logged for Cn1ncc(Cl)c1-c1cc(C(=O)N[C@H](CN)Cc2cccc(F)c2)sc1Cl ?
**A:** NO

**Q:** Any idea what this test logged for CC(=O)Nc1cccc(-n2c(=O)n(C3CC3)c(=O)c3c(Nc4ccc(I)cc4F)n(C)c(=O)c(C)c32)c1 ?
**A:** NO

**Q:** Any idea what this test logged for C1=C/COCc2cc(ccc2OCCN2CCCC2)Nc2nccc(n2)-c2cccc(c2)COC/1 ?
**A:** NO

**Q:** Any idea what this test logged for COc1cc(CCc2cc(NC(=O)c3ccc(N4C[C@@H](C)N[C@@H](C)C4)cc3)n[nH]2)cc(OC)c1 ?
**A:** NO

**Q:** Any idea what this test logged for CNC(=O)c1cc(Oc2ccc(NC(=O)Nc3ccc(Cl)c(C(F)(F)F)c3)c(F)c2)ccn1 ?
**A:** NO
